Origin of the recorded values: the supplement of paper PMC9233669

- Tested on: biotinyl-Leu-oxazolone
- assay_name: self-aminoacylation, catalytic enhancement (BLO) (fold over background); higher = more active; k-Seq, kA / k0A0; sequences stand for … in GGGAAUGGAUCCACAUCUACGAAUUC…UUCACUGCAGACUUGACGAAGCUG
Fewer inactive variants are shown than the library holds.
Lab note: compare self-aminoacylation against 3. Equal or greater, write YES. Smaller, write NO.

[[record]]
primary_sequence = "AUUCACCUAGGCCGUCGGGUG [Fam2.2 aminoacylation ribozyme variant]"
discrete_label = "NO"

[[record]]
primary_sequence = "CCAGACUCCAAGCAAUCGGUC [Fam1B.1 aminoacylation ribozyme variant]"
discrete_label = "NO"

[[record]]
primary_sequence = "CCACACGUCAAGCAAUCGGUG [Fam1B.1 aminoacylation ribozyme variant]"
discrete_label = "NO"

[[record]]
primary_sequence = "AUUUACCUAGGUCAUUGGGUG [Fam2.2 aminoacylation ribozyme variant]"
discrete_label = "YES"

[[record]]
primary_sequence = "AAGUUUGCUUAAAGUCGCAAG [Fam3.1 aminoacylation ribozyme variant]"
discrete_label = "NO"

